- STUDY_TARGET: human UTR2 receptor (Homo sapiens)
- Construct: expressed in transfected cells; host or cells: mouse pre-B cell line 300-19
- Sequence (Q9UKP6 whole entry): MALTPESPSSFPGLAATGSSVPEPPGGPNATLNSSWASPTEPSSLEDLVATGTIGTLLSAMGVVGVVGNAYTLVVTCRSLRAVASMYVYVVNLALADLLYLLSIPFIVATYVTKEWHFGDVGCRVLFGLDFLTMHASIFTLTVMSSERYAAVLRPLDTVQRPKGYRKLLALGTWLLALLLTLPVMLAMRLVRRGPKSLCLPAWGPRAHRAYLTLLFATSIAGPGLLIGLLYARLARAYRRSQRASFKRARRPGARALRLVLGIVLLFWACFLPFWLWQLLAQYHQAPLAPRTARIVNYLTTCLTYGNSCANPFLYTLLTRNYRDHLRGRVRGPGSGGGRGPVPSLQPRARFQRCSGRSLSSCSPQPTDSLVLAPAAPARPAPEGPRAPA
- MEASUREMENT_DESCRIPTION: Calcium mobilization assay, agonist activity at urotensin receptor
- Type: cell-based
- CONDITION_SET: mouse pre-B 300-19 cells transfected with human UTR2, read-out: EC50% (nM) ± SD, Urotensin receptor
- Method: The mouse pre-B cell line 300-19 was stably transfected with the cDNA encoding the human UTR2 receptor (GenBank Acc#NM_018949), and expression was confirmed with a positive calcium signal in response to human urotensin (Sigma Aldrich). Increases in intracellular calcium were monitored using a Flexstation 384 (Molecular Devices, Sunnyvale, Calif.). […] Calcium mobilization induced by urotensin or compounds was measured in the Flexstation 384 (excitation, 485 nM; emission, 525 nM) for 70 seconds. […]
Non-standard residues stand in square brackets, D forms with d. Residues, ends and D or L forms follow the SMILES beside them. Tic = O=C(O)[C@@H]1Cc2ccccc2CN1; Aze = O=C(O)[C@@H]1CCN1
METRIC_NAME: EC50 (nM)

In the examples that follow, each entry is paired with its recorded EC50.
{"MOLECULE": "C[C@@H](O)[C@@H]1NC(=O)[C@@H]2CCN2C(=O)[C@H]2CCCN2C(=O)[C@H](Cc2ccc(O)cc2)NC(=O)[C@H](CCCCN)NC(=O)[C@H](Cc2c[nH]c3ccccc23)NC1=O [Example 7] (cyclo(TWKY[dP][Aze]))", "EC50 (nM)": 286}
{"MOLECULE": "CC[C@H](C)[C@@H]1NC(=O)[C@@H]2CCN2C(=O)[C@H]2CCCN2C(=O)[C@H](Cc2ccc(O)cc2)NC(=O)[C@H](CCCCN)NC(=O)[C@H](Cc2c[nH]c3ccccc23)NC1=O [Example 5] (cyclo(IWKY[dP][Aze]))", "EC50 (nM)": 45}

I. COc1ccc2c3c1CNC(=O)[C@H](Cc1ccc(O)cc1)NC(=O)[C@H](CCCCN)NC(=O)[C@H](Cc1c[nH]c4ccccc14)NC(=O)[C@H]([C@@H](C)O)NC(=O)Cc1c(OC)ccc(c1O3)C2(C)C
II. CC[C@H](C)[C@@H]1NC(=O)[C@@H]2Cc3ccccc3CN2C(=O)[C@H]2CCCN2C(=O)[C@H](Cc2ccc(O)cc2)NC(=O)[C@H](CCCCN)NC(=O)[C@H](Cc2c[nH]c3ccccc23)NC1=O [Example 2] (cyclo(IWKY[dP][Tic]))
**Query** Which of the two items, I and II , has the greater recorded EC50? Please reply using the label of the selected record.
**Result** I
(I: 160 nM, II: 68 nM)
